The origin of these recorded values is the NIST ThermoML archive (doi:10.1021/acs.jced.6b00691).

- assay-comment: xn = mol fraction of the nth substance listed
- conditions: 348 K; 67000 kPa; Liquid; Taylor dispersion method; x2 = 0
outcome-measure: binary diffusion coefficient (m2/s)

[
  {
    "compound": "Cc1ccccc1 [toluene] + O=C=O",
    "outcome-measure": "binary diffusion coefficient",
    "reported-result": "6.54e-09"
  }
]

I: CCCCCCC [heptane] + O=C=O
II: CCCCCCCCCCCCCCCC [hexadecane] + O=C=O
III: CC(C)CCCC(C)CCCC(C)CCCCC(C)CCCC(C)CCCC(C)C (centres undefined) [2,6,10,15,19,23-hexamethyltetracosane] + O=C=O
Order the items by recorded binary diffusion coefficient; the first position goes to the largest value. Would you mind listing the labels in the order asked for? I, II, III

###

- assay-comment: xn = mol fraction of the nth substance listed
- conditions: 323 K; 10000 kPa; Liquid; Taylor dispersion method; x2 = 0
outcome-measure: binary diffusion coefficient (m2/s)

[
  {
    "compound": "Cc1ccccc1 [toluene] + O=C=O",
    "scale-unit": "m2/s",
    "binary diffusion coefficient": "6.78e-09"
  }
]

I: CCCCCCC [heptane] + O=C=O
II: CCCCCCCCCCCCCCCC [hexadecane] + O=C=O
III: CC(C)CCCC(C)CCCC(C)CCCCC(C)CCCC(C)CCCC(C)C (centres undefined) [2,6,10,15,19,23-hexamethyltetracosane] + O=C=O
Provide the items ranked by increasing binary diffusion coefficient. Would you mind listing the labels in the order asked for? III, II, I
(III: 1.61e-09 m2/s, II: 3.41e-09 m2/s, I: 8.72e-09 m2/s)

###

- assay-comment: xn = mol fraction of the nth substance listed
- conditions: 348 K; 1000 kPa; Liquid; Taylor dispersion method; x2 = 0
outcome-measure: binary diffusion coefficient (m2/s)

Here are 2 compounds together with their reported answers.
[
  {
    "compound": "CCCCCCCCCCCCCCCC [hexadecane] + O=C=O",
    "binary diffusion coefficient, m2/s": "5.13e-09"
  },
  {
    "compound": "Cc1ccccc1 [toluene] + O=C=O",
    "binary diffusion coefficient, m2/s": "9.26e-09"
  }
]

P: CC(C)CCCC(C)CCCC(C)CCCCC(C)CCCC(C)CCCC(C)C (centres undefined) [2,6,10,15,19,23-hexamethyltetracosane] + O=C=O
Q: CCCCCCC [heptane] + O=C=O
I need your help: which of the pair P , Q has higher binary diffusion coefficient? Identify your selection by its label. Q
(Q: 1.14e-08 m2/s, P: 2.83e-09 m2/s)

###

- assay-comment: xn = mol fraction of the nth substance listed
- conditions: 373 K; 67000 kPa; Liquid; Taylor dispersion method; x2 = 0
outcome-measure: binary diffusion coefficient (m2/s)

[
  {
    "compound": "CCCCCCCCCC [decane] + O=C=O",
    "scale-unit": "m2/s",
    "binary diffusion coefficient": "6.34e-09"
  }
]

I: CCCCCCCCCCCCCCCC [hexadecane] + O=C=O
II: CCCCCCCC [octane] + O=C=O
In terms of reported binary diffusion coefficient, does I or II have the smaller number? Identify your selection by its label. I
(I: 4.67e-09 m2/s, II: 8.01e-09 m2/s)
